Parameter IC50: see the listing below.
# test system: PRMT5/MEP50 complex (Homo sapiens)
# method description: Inhibition of recombinant human fetal brain FLAG-tagged PRMT5/full length human testis 6His-tagged MEP50 expressed in baculovirus infected insect Sf9 cells using human histone H4 (1 to 15 residues) as substrate preincubated for 30 mins followed by [3H]-SAM addition

Answered cases to consult:
# compound, reported
records = [
    ("CNC(=O)Cn1ccc2cnc(-c3cccc(OCC(O)CN4CCc5ccccc5C4)c3)nc21 (configuration not stated)", "1000 to 10000 nM"),
    ("Cc1cccc(N2CCN(CC(O)CN3CCc4ccccc4C3)C(=O)C2)c1 (configuration not stated)", "10000 to 50000 nM"),
    ("O=C(COc1cccc2nccnc12)NCC(O)CN1CCc2ccccc2C1 (configuration not stated)", "< 100 nM"),
    ("O=C(CC1CCCCC1)NC[C@@H](O)CN1CCc2ccccc2C1", "10000 to 50000 nM"),
    ("CN(C(=O)c1cnco1)c1cccc(OCC(O)CN2CCc3ccccc3C2)c1 (configuration not stated)", "1000 to 10000 nM"),
    ("OC(COc1ccc(Cc2ccccc2)cc1)CN1CCc2ccccc2C1 (configuration not stated)", "101 to 1000 nM"),
    ("CS(=O)(=O)c1ccc(-c2cccc(OCC(O)CN3CCc4ccccc4C3)c2)cc1 (configuration not stated)", "101 to 1000 nM"),
    ("O=C(COc1ccccc1C1CCNC1)NCC(O)CN1CCc2ccccc2C1 (configuration not stated)", "1000 to 10000 nM"),
    ("CNC(=O)c1cccc(-c2cccc(OCC(O)CN3CCc4ccccc4C3)c2)c1 (configuration not stated)", "101 to 1000 nM"),
    ("O=C1COc2ccc(-c3cccc(OCC(O)CN4CCc5ccccc5C4)c3)cc2N1 (configuration not stated)", "101 to 1000 nM"),
]

Field: next compound
Input: Name the recorded IC50 for CC(C)(C)OC(=O)N1CCCC(OCC(O)CN2CCc3ccccc3C2)C1 (configuration not stated) .
Output: 1000 to 10000 nM

* * *

# test system: PRMT5/MEP50 complex (Homo sapiens, UniProt O14744)
# Sequence (O14744 whole entry, the tested form may be a part): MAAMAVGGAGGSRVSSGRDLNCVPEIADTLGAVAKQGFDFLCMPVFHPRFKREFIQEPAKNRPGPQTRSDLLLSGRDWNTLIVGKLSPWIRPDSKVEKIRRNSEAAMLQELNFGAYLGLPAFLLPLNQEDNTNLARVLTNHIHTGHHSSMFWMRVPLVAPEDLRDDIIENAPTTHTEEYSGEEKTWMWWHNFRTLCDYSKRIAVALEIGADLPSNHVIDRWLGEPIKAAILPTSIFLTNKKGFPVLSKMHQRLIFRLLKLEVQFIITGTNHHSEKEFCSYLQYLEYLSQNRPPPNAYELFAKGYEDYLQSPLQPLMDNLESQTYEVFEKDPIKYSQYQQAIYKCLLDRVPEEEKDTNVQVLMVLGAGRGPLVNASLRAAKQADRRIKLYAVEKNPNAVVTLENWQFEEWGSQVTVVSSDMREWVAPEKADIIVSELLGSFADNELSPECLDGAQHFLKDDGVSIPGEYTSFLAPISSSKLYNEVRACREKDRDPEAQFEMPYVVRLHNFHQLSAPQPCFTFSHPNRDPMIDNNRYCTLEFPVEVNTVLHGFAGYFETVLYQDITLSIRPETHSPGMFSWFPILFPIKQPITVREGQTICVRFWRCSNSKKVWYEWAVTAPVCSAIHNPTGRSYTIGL
# Sequence (Q9BQA1 whole entry, further chain, the tested form may be a part): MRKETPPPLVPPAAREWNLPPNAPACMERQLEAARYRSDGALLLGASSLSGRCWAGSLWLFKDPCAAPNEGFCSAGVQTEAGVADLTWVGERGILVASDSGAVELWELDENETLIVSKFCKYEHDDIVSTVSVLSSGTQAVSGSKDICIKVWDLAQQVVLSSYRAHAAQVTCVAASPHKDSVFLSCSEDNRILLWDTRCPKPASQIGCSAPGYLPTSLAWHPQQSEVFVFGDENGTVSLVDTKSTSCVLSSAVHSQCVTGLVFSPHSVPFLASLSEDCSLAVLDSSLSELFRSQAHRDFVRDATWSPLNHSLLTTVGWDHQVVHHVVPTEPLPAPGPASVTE
# method description: Inhibition of recombinant human fetal brain FLAG-tagged PRMT5/full length human testis 6His-tagged MEP50 expressed in baculovirus infected insect Sf9 cells using human histone H4 (1 to 15 residues) as substrate preincubated for 30 mins followed by [3H]-SAM addition
pIC50: −log10 of the molar value.
reported property: pIC50

Answered cases to consult:
# molecule, pIC50
records = [
    ("CC(=O)Nc1ccc(C(=O)NCC(O)CN2CCc3ccccc3C2)cc1 (stereo not drawn)", "6.00 to 7.00"),
    ("OC(COc1ccccc1N1CCNCC1)CN1CCc2ccccc2C1 (stereo not drawn)", "4.40 to 5.00"),
    ("OC(COCc1ccc(OCc2ccccc2)cc1)CN1CCc2ccccc2C1 (stereo not drawn)", "5.00 to 6.00"),
    ("OC(CNc1cc(-c2ccc3ncn(C4CNC4)c3c2)ccn1)CN1CCc2ccccc2C1 (stereo not drawn)", "> 7.00"),
]

Input: // lookup pIC50 | system=PRMT5/MEP50 complex (Homo sapiens, UniProt O14744) | key= `O=C(COc1ccccc1OCCN1CCOCC1)NC[C@@H](O)CN1CCc2ccccc2C1`
Output: 5.00 to 6.00

Input: Try this molecule next: OC(COc1cccc(-c2ccc3ncn(C4CCNC4)c3c2)c1)CN1CCc2ccccc2C1 (stereo not drawn)
Output: > 7.00

Input: Try this molecule next: CN1CCN(C(=O)Cn2ccc3cnc(-c4cccc(OCC(O)CN5CCc6ccccc6C5)c4)nc32)CC1 (stereo not drawn)
Output: 6.00 to 7.00

Input: Try this molecule next: CS(=O)(=O)N1CCN(c2ccccc2OCC(=O)NCC(O)CN2CCc3ccccc3C2)CC1 (stereo not drawn)
Output: 6.00 to 7.00

Input: Try this molecule next: NC(=O)c1ccc(-c2cccc(OCC(O)CN3CCc4ccccc4C3)c2)cc1 (stereo not drawn)
Output: 6.00 to 7.00

Input: Try this molecule next: CC(Nc1cccc(C(=O)NCC(O)CN2CCc3ccccc3C2)c1)C1CCOCC1 (stereo not drawn)
Output: 6.00 to 7.00

Input: Try this molecule next: `O=C(NC[C@@H](O)CN1CCc2ccccc2C1)c1cccc(NC2CCOCC2)c1`
Output: 6.00 to 7.00

Input: Try this molecule next: O=C(COc1cccc2c1CCCC2)NCC(O)CN1CCc2ccccc2C1 (stereo not drawn)
Output: > 7.00

Input: Try this molecule next: Cn1cc2ccc(-c3cccc(NCC(O)CN4CCc5ccccc5C4)c3)nc2n1 (stereo not drawn)
Output: > 7.00

Input: Try this molecule next: CNCCOc1cccc(C(=O)NCC(O)CN2CCc3ccccc3C2)c1 (stereo not drawn)
Output: 6.00 to 7.00
